Every entry's value here was drawn from paper PMC6689975.

test system: C. albicans wild-type; experiment: microbe, parasite or virus in culture; design: species or system whole yeast cells; macro tube broth dilution MIC in YEPD at 30 C, visual clearness of medium; conditions: Candida albicans, 48 h, read-out: MIC

{"Molecule": "Cn1cccc1/C=C1/C(=O)OCc2ccccc21", "Measurement Qualifier": "=", "MIC [µg/mL]": 200}
{"Molecule": "O=C1OCc2ccccc2/C1=C\\c1ccccc1", "Measurement Qualifier": "=", "MIC [µg/mL]": 200}
{"Molecule": "O=C1OCc2ccccc2/C1=C\\c1ccccc1Br [14E]", "Measurement Qualifier": "=", "MIC [µg/mL]": 200}
{"Molecule": "O=C1OCc2ccccc2/C1=C/c1ccc[nH]1", "Measurement Qualifier": "=", "MIC [µg/mL]": 100}
{"Molecule": "O=C1OCc2ccccc2/C1=C\\c1ccccc1Cl", "Measurement Qualifier": ">", "MIC [µg/mL]": 200}
{"Molecule": "COc1cccc(/C=C2/C(=O)OCc3ccccc32)c1OC", "Measurement Qualifier": "=", "MIC [µg/mL]": 100}

====

Test system: S. cerevisiae wild-type CVX12-3A
Construct: CVX12-3A
Experiment: microbe, parasite or virus in culture
Set-up: species or system whole yeast cells; macro tube broth dilution MIC in YEPD at 30 C, visual clearness of medium
Details: Saccharomyces cerevisiae, 48 h, read-out: MIC
Method: Standard YEPD (Yeast Extract, Peptone, Dextrose) ([Sherman, 1990]), YEPD+S (YEPD with 1.2M sorbitol), YES (Yeast Extract, Dextrose and Supplements of Adenine, Histidine, Leucine, Uracil and Lysine) ([Alfa et al., 1993]) and YES+S (YES with 1.2 M sorbitol) ([Ribas et al., 1991]; [Ishiguro et al., 1997]), media were used for determination of MIC values of the tested compounds. A stock solution of 10 mg/ml of each tested compounds was prepared in DMSO and serial dilutions in DMSO were prepared. […]
Parameter MIC: see the listing below.

{"Compound": "O=C1OCc2ccccc2/C1=C\\c1cccc(O)c1 [16E]", "Assayed System": "S. cerevisiae wild-type CVX12-3A", "MIC / µg/mL": 200}
{"Compound": "O=C1OCc2ccccc2/C1=C\\c1ccccc1", "Assayed System": "S. cerevisiae wild-type CVX12-3A", "MIC / µg/mL": 100}
{"Compound": "O=C1OCc2ccccc2/C1=C\\c1ccccc1Br [14E]", "Assayed System": "S. cerevisiae wild-type CVX12-3A", "MIC / µg/mL": 25}
{"Compound": "O=C1OCc2ccccc2/C1=C\\c1cccnc1", "Assayed System": "S. cerevisiae wild-type CVX12-3A", "MIC / µg/mL": 50}
{"Compound": "COc1cccc(/C=C2/C(=O)OCc3ccccc32)c1OC", "Assayed System": "S. cerevisiae wild-type CVX12-3A", "MIC / µg/mL": 100}
{"Compound": "O=C1OCc2ccccc2/C1=C\\c1ccccc1[N+](=O)[O-] [11E]", "Assayed System": "S. cerevisiae wild-type CVX12-3A", "MIC / µg/mL": 200}
{"Compound": "O=C1OCc2ccccc2/C1=C\\c1ccccc1Cl", "Assayed System": "S. cerevisiae wild-type CVX12-3A", "MIC / µg/mL": 100}
{"Compound": "O=C1OCc2ccccc2/C1=C/c1ccc[nH]1", "Assayed System": "S. cerevisiae wild-type CVX12-3A", "MIC / µg/mL": 100}
{"Compound": "CC[C@H](C)C[C@H](C)CCCCCCCCC(=O)N[C@H]1C[C@@H](O)[C@@H](NCCN)NC(=O)[C@@H]2[C@@H](O)CCN2C(=O)[C@H]([C@H](O)CCN)NC(=O)[C@H]([C@H](O)[C@@H](O)c2ccc(O)cc2)NC(=O)[C@@H]2C[C@@H](O)CN2C(=O)[C@H]([C@@H](C)O)NC1=O", "Assayed System": "S. cerevisiae wild-type CVX12-3A", "MIC / µg/mL": 1}
{"Compound": "O=C1OCc2ccccc2/C1=C\\c1ccc(C(=O)O)cc1", "Assayed System": "S. cerevisiae wild-type CVX12-3A", "MIC / µg/mL": 100}
{"Compound": "Cn1cccc1/C=C1/C(=O)OCc2ccccc21", "Assayed System": "S. cerevisiae wild-type CVX12-3A", "MIC / µg/mL": 100}
{"Compound": "Cn1cccc1/C=C1\\C(=O)OCc2ccccc21", "Assayed System": "S. cerevisiae wild-type CVX12-3A", "MIC / µg/mL": 12.5}
{"Compound": "O=C1OCc2ccccc2/C1=C/c1ccccc1", "Assayed System": "S. cerevisiae wild-type CVX12-3A", "MIC / µg/mL": 100}
